Test Target: Beta-glucuronidase (Bos taurus)
Sequence (A3KMY8 whole entry): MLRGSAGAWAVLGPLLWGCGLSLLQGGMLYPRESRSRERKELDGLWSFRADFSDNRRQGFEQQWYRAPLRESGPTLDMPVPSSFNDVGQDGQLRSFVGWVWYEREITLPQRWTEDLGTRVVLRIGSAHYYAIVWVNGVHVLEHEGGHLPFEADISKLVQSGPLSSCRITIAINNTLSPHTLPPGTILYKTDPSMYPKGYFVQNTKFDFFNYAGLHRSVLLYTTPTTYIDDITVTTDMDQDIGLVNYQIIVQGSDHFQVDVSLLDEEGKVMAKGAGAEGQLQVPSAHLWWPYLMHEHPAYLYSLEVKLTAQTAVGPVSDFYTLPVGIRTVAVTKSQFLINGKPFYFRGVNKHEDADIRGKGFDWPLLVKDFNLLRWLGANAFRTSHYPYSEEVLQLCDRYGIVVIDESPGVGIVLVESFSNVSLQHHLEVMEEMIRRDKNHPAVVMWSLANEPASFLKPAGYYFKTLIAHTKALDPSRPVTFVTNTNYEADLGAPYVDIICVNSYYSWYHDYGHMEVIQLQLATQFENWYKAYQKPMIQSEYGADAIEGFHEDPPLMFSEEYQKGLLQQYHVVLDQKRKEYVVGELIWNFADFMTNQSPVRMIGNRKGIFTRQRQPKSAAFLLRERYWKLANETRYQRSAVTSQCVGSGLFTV
Assay Name: Inhibition of bovine liver beta-glucuronidase assessed as p-nitrophenol formation preincubated for 30 mins followed by p-nitrophenyl-beta-D-glucuronide addition by spectrophotometric method
Assay Conditions: read-out: IC50
Value Type: IC50 (µM)
Give your result in µM as a bare value.

Below are worked cases with known answers.
COC(=O)C1=C(C)NC(=O)NC1c1cc(OC)c(O)c(OC)c1 (stereo not drawn)
34.2
COC(=O)C1=C(C)NC(=O)NC1c1ccc(OC)cc1 (stereo not drawn)
59.2
COC(=O)C1=C(C)NC(=O)NC1c1ccccc1OC (stereo not drawn)
59.2
COC(=O)C1=C(C)NC(=O)NC1c1cccc(O)c1 (stereo not drawn)
15.2
COC(=O)C1=C(C)NC(=O)NC1c1ccc(O)cc1 (stereo not drawn)
17.6

Can you look up the measured IC50 of COC(=O)C1=C(C)NC(=O)NC1c1cc(OC)ccc1OC (stereo not drawn) for me?
61

Can you look up the measured IC50 of CCOc1ccc(C2NC(=O)NC(C)=C2C(=O)OC)cc1 (stereo not drawn) for me?
72.2

Can you look up the measured IC50 of CCCCC1NC(=O)NC(C)=C1C(=O)OC (stereo not drawn) for me?
78.2

Can you look up the measured IC50 of CCC1NC(=O)NC(C)=C1C(=O)OC (stereo not drawn) for me?
52.2

Can you look up the measured IC50 of COC(=O)C1=C(C)NC(=O)NC1c1ccccc1Cl (stereo not drawn) for me?
44.2

Can you look up the measured IC50 of COC(=O)C1=C(C)NC(=O)NC1c1cccs1 (stereo not drawn) for me?
18.2

Can you look up the measured IC50 of COC(=O)C1=C(C)NC(=O)NC1c1ccc(O)c(Cl)c1 (stereo not drawn) for me?
27.2

Can you look up the measured IC50 of COC(=O)C1=C(C)NC(=O)NC1c1c(Cl)cccc1Cl (stereo not drawn) for me?
24.2

Can you look up the measured IC50 of COC(=O)C1=C(C)NC(=O)NC1c1ccc([N+](=O)[O-])cc1 (stereo not drawn) for me?
49.1

Can you look up the measured IC50 of COC(=O)C1=C(C)NC(=O)NC1c1ccc(OC)cc1F (stereo not drawn) for me?
18.2

Can you look up the measured IC50 of COC(=O)C1=C(C)NC(=O)NC1c1ccc(F)c(OC)c1 (stereo not drawn) for me?
22.1

Can you look up the measured IC50 of COC(=O)C1=C(C)NC(=O)NC1c1ccc(OC(C)=O)c(OC)c1 (stereo not drawn) for me?
28.2
